// total protein half-life in vivo lookup, one value per entry
TEST: total protein half-life in vivo (active degradation + dilution); higher = more stable protein
TEST PARAMETERS: E. coli NCM3722 delta-hslV; growth: N-lim chemostat; doubling time 6 h

- SEQUENCE CODE: "MQKFDTRTFQGLILTLQDYWARQGCTIVQPLDMEVGAGTSHPMTCLRELGPEPMAAAYVQPSRRPTDGRYGENPNRLQHYYQFQVVIKPSPDNIQELYLGSLKELGMDPTIHDIRFVEDNWENPTLGAWGLGWEVWLNGMEVTQFTYFQQVGGLECKPVTGEITYGLERLAMYIQGVDSVYDLVWSDGPLGKTTYGDVFHQNEVEQSTYNFEYADVDFLFTCFEQYEKEAQQLLALENPLPLPAYERILKAAHSFNLLDARKAISVTERQRYILRIRTLTKAVAEAYYASREALGFPMCNKDK"
  total protein half-life in vivo: "6.72 h"
- SEQUENCE CODE: "MRIVTAAVMASTLAVSSLSHAAEVGSGDNWHPGEELTQRSTQSHMFDGISLTEHQRQQMRDLMQQARHEQPPVNVSELETMHRLVTAENFDENAVRAQAEKMANEQIARQVEMAKVRNQMYRLLTPEQQAVLNEKHQQRMEQLRDVTQWQKSSSLKLLSSSNSRSQ [P0AE85]"
  total protein half-life in vivo: "1.65 h"
- SEQUENCE CODE: "MTLRKILALTCLLLPMMASAHQFETGQRVPPIGITDRGELVLDKDQFSYKTWNSAQLVGKVRVLQHIAGRTSAKEKNATLIEAIKSAKLPHDRYQTTTIVNTDDAIPGSGMFVRSSLESNKKLYPWSQFIVDSNGVALGAWQLDEESSAVVVLDKDGRVQWAKDGALTPEEVQQVMDLLQKLLK"
  total protein half-life in vivo: "5.19 h"
- SEQUENCE CODE: "MKITLSKRIGLLAILLPCALALSTTVHAETNKLVIESGDSAQSRQHAAMEKEQWNDTRNLRQKVNKRTEKEWDKADAAFDNRDKCEQSANINAYWEPNTLRCLDRRTGRVITP"
  total protein half-life in vivo: "4.41 h"

* * *

TEST: total protein half-life in vivo (active degradation + dilution); higher = more stable protein
TEST PARAMETERS: E. coli NCM3722 delta-smpB; growth: N-lim chemostat; doubling time 6 h
// total protein half-life in vivo lookup, one value per entry

- SEQUENCE CODE: "MSKAGASLATCYGPVSADVIAKAENIRLLILDVDGVLSDGLIYMGNNGEELKAFNVRDGYGIRCALTSDIEVAIITGRKAKLVEDRCATLGITHLYQGQSNKLIAFSDLLEKLAIAPENVAYVGDDLIDWPVMEKVGLSVAVADAHPLLIPRADYVTRIAGGRGAVREVCDLLLLAQGKLDEAKGQSI [P0ABZ4]"
  total protein half-life in vivo [h]: 4.36
- SEQUENCE CODE: "MLSNDILRSVRYILKANNNDLVRILALGNVEATAEQIAVWLRKEDEEGFQRCPDIVLSSFLNGLIYEKRGKDESAPALEPERRINNNIVLKKLRIAFSLKTDDILAILTEQQFRVSMPEITAMMRAPDHKNFRECGDQFLRYFLRGLAARQHVKKG"
  total protein half-life in vivo [h]: 5.21

* * *

// total protein half-life in vivo lookup, one value per entry
TEST: total protein half-life in vivo (active degradation + dilution); higher = more stable protein
TEST PARAMETERS: wild type E. coli NCM3722; growth: P-lim chemostat; doubling time 6 h
MEASURED PARAMETER: total protein half-life in vivo (h)

- SEQUENCE CODE: "MSKLDLNALNELPKVDRILALAETNAELEKLDAEGRVAWALDNLPGEYVLSSSFGIQAAVSLHLVNQIRPDIPVILTDTGYLFPETYRFIDELTDKLKLNLKVYRATESAAWQEARYGKLWEQGVEGIEKYNDINKVEPMNRALKELNAQTWFAGLRREQSGSRANLPVLAIQRGVFKVLPIIDWDNRTIYQYLQKHGLKYHPLWDEGYLSVGDTHTTRKWEPGMAEEETRFFGLKRECGLHEG"
  ASSAY RESULT: 3.28
- SEQUENCE CODE: "MADITLISGSTLGGAEYVAEHLAEKLEEAGFTTETLHGPLLEDLPASGIWLVISSTHGAGDIPDNLSPFYEALQEQKPDLSAVRFGAIGIGSREYDTFCGAIDKLEAELKNSGAKQTGETLKINILDHDIPEDPAEEWLGSWVNLLK"
  ASSAY RESULT: 5.07
